- Test system: E. coli BW25113 soxSp lux reporter
- Experiment: promoter activity interaction Z-score (Lux/OD deviation from empty-vector control); higher = stronger promoter induction by the compound
- Test conditions: 0.25 µg/ml; genetic background: ΔmarA
Measurement label: promoter activity interaction Z-score

{"Smiles text": "CC1(C)S[C@@H]2[C@H](NC(=O)[C@H](N)c3ccc(O)cc3)C(=O)N2[C@H]1C(=O)O", "Test target": "E. coli BW25113 soxSp lux reporter", "Quantitative result": -0.165}
{"Smiles text": "C/C(=C\\C(=O)OCCCCCCCCC(=O)O)C[C@@H]1OC[C@H](C[C@@H]2O[C@H]2[C@@H](C)[C@H](C)O)[C@@H](O)[C@H]1O", "Test target": "E. coli BW25113 soxSp lux reporter", "Quantitative result": -0.0981}
{"Smiles text": "CO[C@@]12[C@H](COC(N)=O)C3=C(C(=O)C(C)=C(N)C3=O)N1C[C@@H]1N[C@@H]12", "Test target": "E. coli BW25113 soxSp lux reporter", "Quantitative result": -0.158}
{"Smiles text": "CN(C)c1ccc(O)c2c1C[C@H]1C[C@H]3[C@H](N(C)C)C(O)=C(C(N)=O)C(=O)[C@@]3(O)C(O)=C1C2=O", "Test target": "E. coli BW25113 soxSp lux reporter", "Quantitative result": -0.0485}
